# measurement target: human ether-à-go-go-related gene (hERG) potassium channel (human);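 also: peak tail current of the secondary pulse compared with the same well before compound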
# protocol: primary screen, population patch clamp on CHO cells stably expressing hERG; higher = less effect of the substance
The whole screen tested about 310,000 compounds, of which about 14,000 (4.5%) showed an effect of 50% or more. Effects have a minus sign here. The sample holds strong results, similar compounds and a random draw of the others, so the mix is not that of the screen.
measurement type: hERG current change (%, negative = inhibition) at 10uM (%)
Give bare numbers, in %.

Example entries begin here.
[
  {
    "compound": "COc1ccc(OCC(=O)N2CCN(CC3CC4C=CC3C4)CC2)cc1 (centres unmarked)",
    "reading unit": "%",
    "measured value": -26.6
  },
  {
    "compound": "COc1ccc(OC)c(/C=C/C(=O)OCC(=O)NC2CCCCCCC2)c1",
    "reading unit": "%",
    "measured value": -4.68
  },
  {
    "compound": "O=C(Cc1c(F)cccc1Cl)NC1CCN(Cc2ccccc2)CC1",
    "reading unit": "%",
    "measured value": -0.715
  }
]

Look at each compound and report its hERG current change (%, negative = inhibition) at 10uM.
1. O=C(Nc1ccc(F)cc1)NC1CCN(Cc2ccccc2)CC1
2. Cc1nc(S/C(=C/c2ccc(-c3ccc(C(=O)O)cc3)o2)C(=O)O)n[nH]1
3. CCOc1cc2[nH]c(=S)n(CCCC(=O)NCc3ccco3)c(=O)c2cc1OCC
4. CC(Nc1nc(-c2cccc(Br)c2)cs1)c1nc2cc(Cl)c(N3CCCCC3)cc2n1CCOCCO (centres unmarked)
5. O=C(/C=C/c1cccc(F)c1)NC1CCN(Cc2ccccc2)CC1

Return:
1. -36.7
2. -11.4
3. -7.08
4. -19.1
5. -70.6

====

# measurement target: human ether-à-go-go-related gene (hERG) potassium channel (human, UniProt Q12809);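 also: peak tail current of the secondary pulse compared with the same well before compound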
# Sequence (Q12809 whole entry, looked up): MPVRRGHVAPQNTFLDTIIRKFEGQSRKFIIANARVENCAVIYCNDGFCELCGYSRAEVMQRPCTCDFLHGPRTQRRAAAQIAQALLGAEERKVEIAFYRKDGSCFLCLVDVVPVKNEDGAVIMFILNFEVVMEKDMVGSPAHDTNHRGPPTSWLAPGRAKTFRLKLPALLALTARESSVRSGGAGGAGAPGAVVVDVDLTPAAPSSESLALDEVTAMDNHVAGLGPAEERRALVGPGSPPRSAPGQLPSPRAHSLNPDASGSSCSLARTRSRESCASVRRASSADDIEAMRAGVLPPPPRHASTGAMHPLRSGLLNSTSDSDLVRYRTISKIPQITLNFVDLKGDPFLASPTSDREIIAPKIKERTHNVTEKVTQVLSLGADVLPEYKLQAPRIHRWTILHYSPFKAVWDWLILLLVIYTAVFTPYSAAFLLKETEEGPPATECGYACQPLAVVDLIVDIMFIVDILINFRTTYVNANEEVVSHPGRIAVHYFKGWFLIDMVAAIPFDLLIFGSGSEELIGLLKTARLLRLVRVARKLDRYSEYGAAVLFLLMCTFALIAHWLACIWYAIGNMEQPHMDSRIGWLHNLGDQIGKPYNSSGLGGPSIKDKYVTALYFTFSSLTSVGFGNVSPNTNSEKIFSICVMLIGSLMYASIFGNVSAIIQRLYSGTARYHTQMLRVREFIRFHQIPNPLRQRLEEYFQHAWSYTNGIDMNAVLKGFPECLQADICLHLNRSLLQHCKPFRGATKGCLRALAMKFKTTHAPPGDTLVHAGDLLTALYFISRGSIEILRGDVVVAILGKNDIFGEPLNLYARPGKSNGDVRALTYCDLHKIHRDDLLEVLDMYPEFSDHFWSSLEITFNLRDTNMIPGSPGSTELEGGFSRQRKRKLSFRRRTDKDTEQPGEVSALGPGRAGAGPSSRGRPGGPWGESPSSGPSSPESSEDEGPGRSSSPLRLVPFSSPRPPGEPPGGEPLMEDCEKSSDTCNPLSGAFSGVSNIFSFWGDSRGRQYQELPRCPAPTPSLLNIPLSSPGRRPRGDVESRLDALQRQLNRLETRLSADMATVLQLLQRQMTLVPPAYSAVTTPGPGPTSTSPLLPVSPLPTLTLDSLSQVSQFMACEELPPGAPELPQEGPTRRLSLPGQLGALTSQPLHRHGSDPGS
# protocol: primary screen, population patch clamp on CHO cells stably expressing hERG; higher = less effect of the substance
Among all 310,000 compounds or so, about 14,000 (4.5%) showed an effect of 50% or more. Effects have a minus sign here. Shown is part of a subset that was picked to be rich in strong results.
measurement type: hERG current change (%, negative = inhibition) at 10uM

Example entries begin here.
[
  {
    "molecule": "Cc1cc(C)n2nc(C(=O)OCCOc3ccc(Br)cc3)nc2n1",
    "measured value": "-55.3%"
  },
  {
    "molecule": "CCc1cc2c(SCC(=O)N(C)C3CCS(=O)(=O)C3)ncnc2s1 (centres unmarked)",
    "measured value": "-20.1%"
  },
  {
    "molecule": "CCN(C(=O)CSc1nc2cc(Cl)ccc2c(=O)n1Cc1ccco1)C1CCS(=O)(=O)C1 (centres unmarked)",
    "measured value": "-74.7%"
  },
  {
    "molecule": "Cc1ccnc2nc(C(=O)OCC(=O)Nc3ccc4c(c3)OC(F)(F)O4)nn12",
    "measured value": "-49.1%"
  }
]

Lab note: next molecule to report on.
Enquiry: For the record CCN(C(=O)CSc1nc2cc(Cl)ccc2c(=O)n1CC(C)C)C1CCS(=O)(=O)C1 (centres unmarked) , what value of hERG current change (%, negative = inhibition) at 10uM is listed for human ether-à-go-go-related gene (hERG) potassium channel (human, UniProt Q12809)?
Return: 2.51%

These data points were gathered from paper PMC4336329.
